Data credit: patent US20170088602A1

SYSTEM_NAME: T1, human BMP-11 (GDF-11; R&D Systems) (human, UniProt O95390 299-407)
T1 sequence (looked up): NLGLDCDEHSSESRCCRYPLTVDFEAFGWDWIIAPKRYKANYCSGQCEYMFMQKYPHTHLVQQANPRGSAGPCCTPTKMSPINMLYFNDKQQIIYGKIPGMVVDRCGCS
PROCEDURE_DETAILS: cell-based or functional assay
RECORDED_ENDPOINT: ARE-luciferase IC50 (nM)

Record excerpt, results attached:
BINDER: 3146_A08 (designed binder) MGVSDVPRDLEVVAATPTSLLISWSLPNPGNAHYYRITYGETGGNSPVQEFTVPGRGVTATISGLKPGVDYTITVYAVTVTDTGFITYKPISINYRTEIDKPSQHHHHHH
ARE-luciferase IC50, nM: 48

BINDER: 2987_G04 (designed binder) MGVSDVPRDLEVVAATPTSLLISWSLPYPGHLNYYRITYGETGGNSPVQEFTVPGRGVTATISGLKPGVDYTITVYAVTLTKSKVIHYMPISINYRTEIDKPSQHHHHHH
ARE-luciferase IC50, nM: 3.3

A = 2525_F07 (designed binder) MGVSDVPRDLEVVAATPTSLLISWSLPYAAHMNYYRITYGETGGNSPVQEFTVPGRGVTATISGLKPGVDYTITVYAVTLTRSQVIHYMPISINYRTEIDKPSQHHHHHH
B = 2524_C11 (designed binder) MGVSDVPRDLEVVAATPTSLLISWTLPHAGLAHYYRITYGETGGNSPVQEFTVPGRGVTATISGLKPGVDYTITVYAVTLTNSEIILYKPISINYRTEIDKPSQHHHHHH
Request: Returns: the label, A or B , whose recorded ARE-luciferase IC50 is the lower number. Give the chosen item's label as your response.
Response: B
